Each entry below carries its reported Binding to 1 nM KDR, %.
- system_name: T1, human vascular endothelial growth factor receptor-2 Fc chimera (KDR-Fc) (human, UniProt P35968 20-764)
- T1 construct: range 1-764; purchased from R&D Systems; also called hKDR; human VEGF-R2-Fc; not shown: human IgG1 Fc
- protocol_summary: radioactive equilibrium binding, 1 nM KDR-Fc
- Method: To prepare ³⁵S-labeled binding proteins for analysis, mRNA was prepared as described above for RNA-protein fusion production but the linker ligation step was omitted. […] 50 μA of the reaction mixture and elution were dried onto a LumaPlate-96 (Packard) and the amount of ³⁵S on the plate was measured using a TopCount NXT instrument (Packard). […] Data was analyzed using the GraphPad Prizm software (GraphPad Software, Inc, San Diego, Calif.), fitted using a one site, non-linear binding equation.
Report only the number, with the unit % understood.

What value of measured Binding to 1 nM KDR, % is listed for 2′B4-PR4 (designed binder, tag left out) VSDVPRDLEVVAATPTSLLISWRHPHFPTRYYRITYGETGGNSPVQEFTVPLQPPTATISGLKPGVDYTITGYAVTSGHNGHEVMTPISINYRT ?
4

And for 2′Del E12 PR4 (designed binder, tag left out) EVVAATPTSLLISWRHPHFPTRYYRITYGETGGNSPVQEFTVPLQPPTATISGLKPGVDYTITGYAVTEGPNGHELITPISINYRT ?
13

And for 2′D5-PR4 (designed binder, tag left out) VSDVPRDLEVVAATPTSLLISWRHPHFPTRYYRITYGETGGNSPVQEFTVPLQPPTATISGLKPGVDYTITGYAVTVAWNDHMLMTPISINYRT ?
11

And for 3′E4 PR4 (designed binder, tag left out) EVVAATPTSLLISWRHPHFPTRYYRITYGETGGNSPVQEFTVPLQPPTATISGLKPGVDYTITGYAVTVGPNDRELIVPISINYRT ?
12

And for 1′DelC4 PR4 (designed binder, tag left out) EVVAATPTSLLISWRHPHFPTRYYRITYGETGGNSPVQEFTVPLQPPTATISGLKPGVDYTITGYAVTVAQSNHELMTPISINYRT ?
9

src = patent US20140179896A1
